Provenance of the data: paper PMC9187613

Below is a list of entries, each paired with its recorded CC50 value.
# Tested on: Vero cells
# protocol-text: Cytotoxicity assay
# measurement-setup: 48 h, LDH release
Quick reminder: number only, in µM, skip the unit.

COc1ccc(C(=O)/C=C/c2ccc(O)cc2)c(O)c1CC=C(C)C [4-HD, 4-hydroxyderricin] :: 103

// moving on: another record for CC50
Measured CC50, C=C(C)C(Cc1c(OC)ccc(C(=O)/C=C/c2ccc(O)cc2)c1O)OO (centres unmarked) : 111

###

The compounds listed here are annotated with their pIC50.
# test-target: UniProt A0A024B7W1
# protocol-text: NS2B-NS3 protease activity assay
# Type: biochemical
# measurement-setup: read-out: NS3pro IC50; 4 nM enzyme, 30 μM Bz-nKRR-AMC, 37 °C
Note on units: pIC50 is unitless, being -log10 of a concentration expressed in mol/L.

COc1ccc(C(=O)/C=C/c2ccc(O)cc2)c(O)c1CC=C(C)C [4-HD, 4-hydroxyderricin] :: 4.33

// pIC50 value for C=C(C)C(Cc1c(OC)ccc(C(=O)/C=C/c2ccc(O)cc2)c1O)OO (centres unmarked) : 4.74

###

# test-target: UniProt:A0A024B7W1
# protocol-text: NS2B-NS3 protease activity assay
# Type: biochemical
metric: pIC50
// field semantics: pIC50 = negative decimal log of concentration (mol/L)

The value of pIC50 measured for the compound CC(C)=CCC/C(C)=C/Cc1c(O)ccc(C(=O)/C=C/c2ccc(O)cc2)c1O [XA, Xanthoangelol] turned out to be 4.30

###

# Test system: Zika virus (ATCC strain MR 766)
# protocol-text: ZIKV replication in Vero cells, virus titers by plaque assay
# measurement-setup: read-out: Antiviral EC50, MOI 1, 48 h, plaque assay
Listed here: items and their measured EC50.
// return numeric value only (unit: µM, not printed)

C=C(C)C(Cc1c(OC)ccc(C(=O)/C=C/c2ccc(O)cc2)c1O)OO (centres unmarked) :: 22

Proceeding to the next molecule to report its EC50.
For record COc1ccc(C(=O)/C=C/c2ccc(O)cc2)c(O)c1CC=C(C)C [4-HD, 4-hydroxyderricin] the listed EC50 is 6.6

###

# test-target: ZIKV NS5 RdRp (Zika virus, UniProt A0A024B7W1)
# Sequence (A0A024B7W1 2826-3423): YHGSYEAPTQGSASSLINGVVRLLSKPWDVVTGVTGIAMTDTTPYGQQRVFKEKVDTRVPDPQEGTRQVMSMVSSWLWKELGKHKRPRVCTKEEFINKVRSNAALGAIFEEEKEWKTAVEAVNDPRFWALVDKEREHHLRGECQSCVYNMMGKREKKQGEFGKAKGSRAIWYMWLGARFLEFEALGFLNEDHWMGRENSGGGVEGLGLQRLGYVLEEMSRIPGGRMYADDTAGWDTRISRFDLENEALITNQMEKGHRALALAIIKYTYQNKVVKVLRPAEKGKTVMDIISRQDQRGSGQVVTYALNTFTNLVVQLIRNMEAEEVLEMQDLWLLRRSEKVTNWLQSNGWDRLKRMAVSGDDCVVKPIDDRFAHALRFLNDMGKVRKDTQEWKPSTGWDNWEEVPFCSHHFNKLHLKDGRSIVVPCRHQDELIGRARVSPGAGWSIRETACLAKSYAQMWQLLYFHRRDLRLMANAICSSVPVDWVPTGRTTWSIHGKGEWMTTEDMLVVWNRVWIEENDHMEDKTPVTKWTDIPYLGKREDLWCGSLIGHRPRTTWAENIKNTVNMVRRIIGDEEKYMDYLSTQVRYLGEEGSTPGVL
metric: IC50 (µM)
Quick note: give the figure in µM, leave out the unit.

Entry CC(C)=CCC/C(C)=C/Cc1c(O)ccc(C(=O)/C=C/c2ccc(O)cc2)c1O [XA, Xanthoangelol] , IC50 reported as 6.9
